# System: MELK
# test_context: concentration: 1 μM, replicates: in singlicate; n = 1;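 also: KINOMEscan kinase panel screen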
measured_attribute: %Inh (%)
Numbers only, in %.

O=C1NC(=O)C(c2ccc(Cl)cc2)=C1Nc1cccc(Cl)c1 : 16
Nc1ncnc2occ(-c3ccc4c(c3)CCN4C(=O)Cc3cc(F)ccc3F)c12 : 3
CC(=O)c1c(C)c2cnc(Nc3ccn(C)n3)nc2n(C2CCCC2)c1=O : 1
O=C(Nc1n[nH]c2cc(-c3ccsc3)ccc12)C1CC1 : 0
CNc1nc(-c2ccc3c(N)n[nH]c3c2)cc(N2C[C@@H](C(=O)NC3CCCCC3)OC[C@H]2C)n1 : 57
CNC(=O)c1ccc(C)c(-n2c(C)cc(OCc3ccc(F)cc3F)c(Br)c2=O)c1 : 14

State the recorded %Inh for every item in the following list.
1. COc1cccc(C2=C(Nc3cc(Cl)c(O)c(Cl)c3)C(=O)NC2=O)c1
2. COc1ccc(CSc2nnc(-c3ccc4ncsc4c3)o2)cc1C(F)(F)F

a:
[17, 0]

----------
I'd appreciate it if you could supply %Inh values for the items below.
# Test system: RIOK2
# test_context: concentration: 1 μM, replicates: in singlicate; n = 1
Give bare numbers, in %.

Example entries begin here.
Cc1ccccc1Cn1ccn2c(=O)cc(N3CCOCC3)nc12 : 0
CNc1nc(-c2ccc3c(N)n[nH]c3c2)cc(N2C[C@@H](C(=O)Nc3ccccc3)CC[C@H]2C)n1 : 0
O=C1NC(=O)C(c2ccc(Cl)cc2)=C1Nc1cccc(Cl)c1 : 0
COc1cccc(NC(=O)Nc2ccc(C)c(-c3ccc(C(=O)Nc4ccncc4)cc3)c2)c1 : 0
COc1ccc(CSc2nnc(-c3ccc4ncsc4c3)o2)cc1C(F)(F)F : 13

State the recorded %Inh for every item in the following list.
1. Fc1ccc(-c2nn3cccc(F)c3c2-c2ccncc2)cc1
2. O=C(Nc1n[nH]c2nc(-c3cccs3)c(Br)cc12)C1CCCC1

a:
7
7

----------
I'd appreciate it if you could supply %Inh values for the items below.
# Test system: ERN1
# test_context: concentration: 1 μM, replicates: in singlicate; n = 1
Answers are plain numbers, in %.

Example entries begin here.
CNc1nc(-c2ccc3c(N)n[nH]c3c2)cc(N2C[C@@H](C(=O)NC3CCCCC3)OC[C@H]2C)n1 [GSK2375584] : 0
COc1ccc(-c2coc3ccc(-c4nnc(C)o4)cc23)cc1 : 0
COc1ccc(Nc2nccc(N3CCC(NC(=O)C(C)c4ccc(Cl)cc4)C3)n2)cc1 (stereo not drawn) [GSK1379735] : 0
Cc1ccc(-c2nc(Nc3ccncc3)c3ccccc3n2)s1 [GSK189015] : 22
O=c1cc(N2CCOCC2)nc2n(Cc3ccccc3F)ccn12 [GSK2297428] : 7

State the recorded %Inh for every item in the following list.
1. Nc1nccc(-c2c(-c3ccc(F)cc3)ncn2C2CCN(Cc3ccccc3)CC2)n1 [SB-219980]
2. CCc1ccc(-c2ccc3c(c2)-c2n[nH]cc2S(=O)(=O)N3C)cc1
3. CNCc1ccc2nc(NC(=O)c3ccc(C(C)(C)C)cc3)cn2c1
4. COc1ccc(CSc2nnc(-c3ccc4ncsc4c3)o2)cc1C(F)(F)F
5. COc1ccc(Nc2nccc(-c3ccc(NC(=O)c4cc5cc(F)ccc5[nH]4)cc3)n2)cc1 [GSK1229496]
6. COc1ccc(Nc2nccc(NCCNC(=O)Nc3cc(C)ccc3C)n2)cc1 [GSK1379899]
7. CSc1ccc(-c2nc3n(c2-c2ccncc2)CCC3)cc1 [SKF-105561]

a:
41
0
9
0
0
0
0

State the recorded %Inh for every item in the following list.
1. Cc1ccc(NC(=O)c2ccc(Cl)cc2)cc1-c1ccc(C(=O)Nc2ccncc2)cc1 [GSK1398467]
2. CC[C@@H]1CO[C@H](C(=O)Nc2ccccc2)CN1c1cc(-c2ccc3c(N)n[nH]c3c2)nc(NC)n1 [GSK2376236]
3. COc1ccc(Nc2nccc(N3CCC(NC(=O)C(C)c4ccc(Cl)cc4)CC3)n2)cc1 (stereo not drawn) [GSK1379812]
4. COc1cc2ncnc(Nc3cccc(Br)c3)c2cc1OC.Cl [GI230329]
5. Cc1ccccc1-c1cc(-c2c[nH]nc2-c2ccccn2)ccn1 [GW680061]
6. O=C(Nc1n[nH]c2nc(-c3cccs3)c(Br)cc12)C1CC1 [SB-735297]

a:
1. 0
2. 19
3. 0
4. 2
5. 0
6. 0
